# System: L1210 leukemia ip in BDF1 mice, survival T/C
# experimentSummary: NCI In Vivo Anticancer Drug Screen. Data for tumor model L1210 Leukemia (intraperitoneal) in B6D2F1 (BDF1) mice
# testSettings: endpoint: mean survival time; dose: 200.0 mg/kg/injection; schedule: Q01DX009 (ip); vehicle: saline with Tween-80; higher = longer survival
Inconclusive results and toxic doses are left out.
Give measured T/C for each item. Keep answers brief.

Worked cases, T/C given:
| molecule | T/C |
| --- | --- |
| CCCCOc1ccc(/C=N/NC(=O)CNC(=O)Nc2cccc([N+](=O)[O-])c2)cc1 | 93 % of control |
| CCOC(=O)NCCCCCCNC(=O)OCC | 95 % of control |
| CCCCOC(=O)C1OC1(C)c1ccc(C)cc1 (configuration not stated) | 113 % of control |

Answer for every listed entry: what is its T/C? The entries follow.
1. COc1ccc(C2C3CC4C(OC(=O)C42)C3I)cc1 (configuration not stated)
2. O=c1[nH]c(=O)c2[nH]cnc2[nH]1
3. O=C(c1ccccc1)c1ccc2ccc(F)cc2c1C(=O)O
4. Nc1nc2nc3c(nc2c(=O)[nH]1)CN(c1ccc(C(=O)NC(CCC(=O)O)C(=O)O)cc1)C3=O (configuration not stated)
5. Nc1cc2c3ccccc3ncc2c2ccccc12
6. NC(=O)c1nc(-c2ccccc2)c(-c2ccccc2)[nH]c1=O

1: 98 % of control; 2: 90 % of control; 3: 113 % of control; 4: 95 % of control; 5: 108 % of control; 6: 95 % of control

Answer for every listed entry: what is its T/C? The entries follow.
1. O=C(NC(Cc1cnc[nH]1)C(=O)O)OCc1ccccc1 (configuration not stated)
2. O=C(Nc1ccc(CCO)cc1)c1ccc(F)cc1
3. CC(=O)OC1C2CC3C(C2)C31 (configuration not stated)

1. 100 % of control
2. 93 % of control
3. 94 % of control

* * *

# System: L1210 leukemia ip in BDF1 mice, survival T/C
# experimentSummary: NCI In Vivo Anticancer Drug Screen. Data for tumor model L1210 Leukemia (intraperitoneal) in B6D2F1 (BDF1) mice
# testSettings: endpoint: mean survival time; dose: 100.0 mg/kg/injection; schedule: Q01DX009 (ip); vehicle: Klucel (hydroxypropylcellulose) (HPC); higher = longer survival
Toxic doses and inconclusive results are not listed.
observable: T/C

Worked cases, T/C given:
| compound | studySystem | measValue |
| --- | --- | --- |
| COc1ccc(/C=N/NC(=S)Nc2ccccc2)cc1 | L1210 leukemia ip in BDF1 mice, survival T/C | 103 % of control |
| COc1ccc(NC(=O)C(Br)C(Br)c2ccccc2)c(Cl)c1 (stereo not drawn) | L1210 leukemia ip in BDF1 mice, survival T/C | 102 % of control |
| CNc1nc(N(C)C)nc(C)c1[N+](=O)[O-] | L1210 leukemia ip in BDF1 mice, survival T/C | 98 % of control |

Answer for every listed entry: what is its T/C? The entries follow.
1. CCCCC(=O)OC1CC(C)CCC1C(C)C (stereo not drawn)
2. C=CCOC(=O)C1(O)c2ccccc2NC(=S)N1CC=C (stereo not drawn)
3. O=C(NCCCl)NC1CCCCCCCCCCC1
4. C#CCC1(OC(N)=O)CCCCC1
5. CCOC(=O)c1cc(C(=O)OC)[nH]c(=O)c1C#N
6. CS(=O)(=O)Nc1ccccc1N
7. NC(=O)NC(=O)/C=C\C(=O)O

1: 98 % of control; 2: 104 % of control; 3: 98 % of control; 4: 110 % of control; 5: 93 % of control; 6: 95 % of control; 7: 98 % of control

Answer for every listed entry: what is its T/C? The entries follow.
1. CCOC(=O)Nc1ccccc1
2. CC(C)(C)OC(=O)NNC(=O)C(CSC(c1ccccc1)c1ccccc1)N1C(=O)c2ccccc2C1=O (stereo not drawn)

1: 97 % of control; 2: 101 % of control

Looking for the measured T/C of "COc1ccc(NC(=O)c2c(Br)c(Br)c(Br)c(Br)c2C(=O)O)c(Cl)c1" , can you help?
96 % of control

* * *

Give measured T/C for each item. Keep answers brief.
# Test system: L1210 leukemia ip in BDF1 mice, survival T/C
# experimentSummary: NCI In Vivo Anticancer Drug Screen. Data for tumor model L1210 Leukemia (intraperitoneal) in B6D2F1 (BDF1) mice
# testSettings: endpoint: mean survival time; dose: 200.0 mg/kg/injection; schedule: Q04DX003 (ip); vehicle: saline with Tween-80; higher = longer survival
Toxic doses and inconclusive results are not listed.

Worked cases, T/C given:
| compound | T/C |
| --- | --- |
| O=C(NC(Cc1cnc[nH]1)C(=O)O)OCc1ccccc1 (configuration not stated) | 98 % of control |
| CC(C)COC(=O)c1ccc(NC(=O)Nc2ccccc2)cc1 | 88 % of control |
| COC1OC(COC(=O)c2ccccc2)C(OC(=O)Nc2ccccc2)C1O (configuration not stated) | 98 % of control |

Answer for every listed entry: what is its T/C? The entries follow.
1. O=C1N=C2C=CC=CN2CC1O (configuration not stated)
2. C/C=C(\C)C(=O)Nc1cccc(O)c1
3. CN(C)C(=O)c1cccc(NC(=O)Oc2ccccc2)c1
4. CC(C)c1ccccc1OS(=O)(=O)c1ccccc1

["89 % of control", "93 % of control", "100 % of control", "95 % of control"]

* * *

# System: L1210 leukemia ip in BDF1 mice, survival T/C
# experimentSummary: NCI In Vivo Anticancer Drug Screen. Data for tumor model L1210 Leukemia (intraperitoneal) in B6D2F1 (BDF1) mice
# testSettings: endpoint: mean survival time; dose: 150.0 mg/kg/injection; schedule: Q01DX001 (ip); vehicle: other; higher = longer survival
Toxic doses and inconclusive results are not listed.
observable: T/C

Worked cases, T/C given:
| compound | studySystem | T/C |
| --- | --- | --- |
| CCN(CC)CCSC(=O)C(O)(c1ccc(C)cc1)c1ccc(C)cc1 | L1210 leukemia ip in BDF1 mice, survival T/C | 96 % of control |
| O=C(CCN1CCCCC1)C(O)(c1ccccc1)c1ccccc1 | L1210 leukemia ip in BDF1 mice, survival T/C | 97 % of control |
| NC(=O)SCC(=O)NNc1ccccc1 | L1210 leukemia ip in BDF1 mice, survival T/C | 98 % of control |
| O=C1Oc2ccccc2C1=O | L1210 leukemia ip in BDF1 mice, survival T/C | 101 % of control |
| C=CCO[Si](OCC=C)(OCC=C)OCC=C | L1210 leukemia ip in BDF1 mice, survival T/C | 98 % of control |

Answer for every listed entry: what is its T/C? The entries follow.
1. Nc1ccc(N)c(C(=O)O)c1
2. OC1CCC(c2ccccc2)C1 (configuration not stated)

93 % of control
97 % of control

* * *

# Test system: L1210 leukemia ip in BDF1 mice, survival T/C
# experimentSummary: NCI In Vivo Anticancer Drug Screen. Data for tumor model L1210 Leukemia (intraperitoneal) in B6D2F1 (BDF1) mice
# testSettings: endpoint: mean survival time; dose: 400.0 mg/kg/injection; schedule: Q01DX009 (ip); vehicle: saline with Tween-80; higher = longer survival
Toxic doses and inconclusive results are not listed.
Give measured T/C for each item. Keep answers brief.

| compound | measValue |
| --- | --- |
| Cc1ccc(C)c(CCCC(=O)O)c1 | 104 % of control |
| Cc1ccccc1OC(F)(F)C(F)Cl (stereo not drawn) | 86 % of control |
| [Co+2].[NH-]c1ccccc1C(=O)O.[NH-]c1ccccc1C(=O)O | 86 % of control |

Answer for every listed entry: what is its T/C? The entries follow.
1. OC1CC2CCC1C2 (stereo not drawn)
2. O=C(NC(Cc1cnc[nH]1)C(=O)O)OCc1ccccc1 (stereo not drawn)
3. COC1CC(N=[N+]=[N-])C(OS(C)(=O)=O)C(C)O1 (stereo not drawn)
4. Nc1cc(N)c([N+](=O)[O-])cc1[N+](=O)[O-]
5. CN(C)c1ccc(C(=O)O)cn1
6. CN(C)N=Nc1ccc([N+](=O)[O-])cc1C(N)=O
7. Cc1ccc(SC(=O)Cc2ccc([N+](=O)[O-])cc2)cc1

1: 95 % of control; 2: 96 % of control; 3: 109 % of control; 4: 98 % of control; 5: 102 % of control; 6: 122 % of control; 7: 93 % of control

* * *

# Test system: L1210 leukemia ip in BDF1 mice, survival T/C
# experimentSummary: NCI In Vivo Anticancer Drug Screen. Data for tumor model L1210 Leukemia (intraperitoneal) in B6D2F1 (BDF1) mice
# testSettings: endpoint: mean survival time; dose: 200.0 mg/kg/injection; schedule: Q01DX001 (ip); vehicle: Klucel (hydroxypropylcellulose) (HPC); higher = longer survival
# Description: The antitumor activity of compounds was measured in mice bearing transplantable tumors. Survival or tumor size were measured and the results are expressed as the measurement made in the treated group (T) divided by the measurement made in the vehicle treated control group (C). The tumor model used in this assay is L1210 Leukemia (intraperitoneal) in B6D2F1 (BDF1) mice
Inconclusive results and toxic doses are left out.
observable: T/C

Worked cases, T/C given:
| molecule | observable | measValue |
| --- | --- | --- |
| O=C(Nc1cccc(C(F)(F)F)c1)Oc1ccc(F)cc1 | T/C | 109 % of control |
| COc1ccc(C(N)C(=O)O)cc1 (stereo unspecified) | T/C | 97 % of control |
| c1cnc2c(c1)Oc1cccnc1N2 | T/C | 90 % of control |

Answer for every listed entry: what is its T/C? The entries follow.
1. CCCCCCCCCCCCCC(S(=O)(=O)CC)S(=O)(=O)CC
2. CC(=O)OC1CCC2(C)C(=CC=C3C2CCC2(C)C3CCC2C(C)CCCC(C)C)C1 (stereo unspecified)
3. CCCCCCCCCCC(=O)O
4. COC(C)c1cnccc1/C(C)=C1/Nc2ccccc2C1=O (stereo unspecified)
5. [N-]=[N+]=C1N=C(Br)N=C1c1n[nH]c(Br)n1
6. O=[N+]([O-])c1cc(Br)c(Br)cc1Br
7. C1=C\CCC2(OCCO2)C2(CC/1)OCCO2
8. c1ccc2ncc(-c3ccc4ccccc4n3)cc2c1

87 % of control
87 % of control
105 % of control
94 % of control
109 % of control
101 % of control
109 % of control
94 % of control
